target_desc: DRB5*0101 (DR2w2a) (Homo sapiens, UniProt P01903+Q30154)
Construct: used as sources of human HLA class II molecules; endogenous in cells; host or cells: GM3107 (EBV-transformed homozygous B cell line)
protocol_text: Class II peptide-binding assay, DR2w2a (DR2w2B2);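 also: competitive binding assay: unlabeled peptide inhibiting binding of a radiolabeled probe peptide to purified DR molecules at pH 7.0, IC50 approximating Kd, lower means stronger binding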
test_conditions: read-out: DR2w2B2 nM; Table VIII, In IC50 Format
pIC50: −log10 of the molar value. Square brackets hold non-standard residues; d marks the D form. Peptide text beside a SMILES is read from it.

>  <compound>
CC(C)C[C@H](NC(=O)[C@@H](NC(=O)[C@@H](NC(=O)[C@H](CCC(N)=O)NC(=O)[C@H](CO)NC(=O)[C@H](CCC(N)=O)NC(=O)[C@H](Cc1ccccc1)NC(=O)[C@H](CCCNC(=N)N)NC(=O)[C@H](C)NC(=O)[C@H](N)Cc1ccc(O)cc1)[C@@H](C)O)[C@@H](C)O)C(=O)N[C@@H](CCCCN)C(=O)N[C@@H](C)C(=O)N[C@@H](CCCCN)C(=O)N[C@@H](C(N)=O)[C@H](C)O [Peptide 858.06] (H-[dY]ARFQSQTTLKAK[dT]-NH2)

>  <pIC50>
7.19

$$$$

----------
Entries annotated with measured pIC50
target_desc: DRB1*0301 (DR3w17) (Homo sapiens, UniProt P01903+P01911, A100K/A102G/A103R/A169T/F55Y/I96L/K41T/L162R/M171V/P40S/Q125H/Q178H/Q39Y/R42S/S66N/T106N/T262R/W38E/Y61H)
Construct: used as sources of human HLA class II molecules; endogenous in cells; host or cells: MAT (EBV-transformed homozygous B cell line)
Sequence (P01903 26-254, other chains not shown): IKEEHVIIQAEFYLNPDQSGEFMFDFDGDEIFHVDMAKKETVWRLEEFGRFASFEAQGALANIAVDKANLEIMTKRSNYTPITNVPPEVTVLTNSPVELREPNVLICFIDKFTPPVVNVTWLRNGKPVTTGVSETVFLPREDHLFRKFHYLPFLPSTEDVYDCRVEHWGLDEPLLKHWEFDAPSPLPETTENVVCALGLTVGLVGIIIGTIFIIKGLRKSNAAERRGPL
protocol_text: Class II peptide-binding assay, DR3 (pH 4.5);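 also: unlabeled peptide competing with a radiolabeled probe peptide for binding to affinity-purified HLA-DR3, IC50 regarded as an approximation of Kd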
test_conditions: read-out: In IC50 Format DR3; Table VIII
pIC50: −log10 of the molar value.

>  <compound>
CC[C@H](C)[C@H](NC(=O)[C@H](CC(=O)O)NC(=O)[C@H](CC(=O)O)NC(=O)[C@@H]1CCCN1C(=O)[C@H](CO)NC(=O)[C@H](CC(C)C)NC(=O)[C@H](CCSC)NC(=O)[C@H](CC(C)C)NC(=O)[C@@H](N)CC(=O)O)C(=O)N[C@@H](CCC(=O)O)C(=O)N[C@@H](CCC(N)=O)C(=O)N[C@@H](Cc1c[nH]c2ccccc12)C(=O)N[C@@H](Cc1ccccc1)C(=O)N[C@H](C(=O)N[C@@H](CCC(=O)O)C(=O)O)[C@@H](C)O [Peptide 39.0411]

>  <result_comparator>
=

>  <pIC50>
4.70

$$$$
>  <compound>
CC[C@H](C)[C@H](NC(=O)[C@H](CCC(N)=O)NC(=O)[C@H](CC(C)C)NC(=O)[C@@H](NC(=O)[C@H](Cc1ccccc1)NC(=O)[C@H](Cc1ccc(O)cc1)NC(=O)[C@H](CCC(=O)O)NC(=O)CNC(=O)[C@H](CC(=O)O)NC(=O)[C@H](CC(C)C)NC(=O)[C@@H]1CCCN1C(=O)[C@H](CCCCN)NC(=O)[C@@H](N)CCCCN)[C@@H](C)O)C(=O)N[C@@H](CCCNC(=N)N)C(=O)NCC(=O)O [Peptide 39.0422]

>  <result_comparator>
<

>  <pIC50>
3.92

$$$$
>  <compound>
C[C@H](NC(=O)[C@H](CCC(=O)O)NC(=O)[C@H](CC(=O)O)NC(=O)[C@@H]1CCCN1C(=O)CNC(=O)[C@@H]1CCCN1C(=O)[C@H](CC(=O)O)NC(=O)[C@H](CCC(=O)O)NC(=O)[C@@H](NC(=O)[C@H](Cc1ccccc1)NC(=O)[C@H](Cc1c[nH]c2ccccc12)NC(=O)[C@H](CCC(N)=O)NC(=O)[C@@H](N)CCC(=O)O)[C@@H](C)O)C(=O)N1CCC[C@H]1C(=O)N[C@@H](CCCNC(=N)N)C(=O)O [Peptide 39.0412]

>  <result_comparator>
<

>  <pIC50>
3.92

$$$$
>  <compound>
CC(C)C[C@H](NC(=O)[C@H](CCCCN)NC(=O)[C@H](Cc1c[nH]c2ccccc12)NC(=O)[C@H](CC(C)C)NC(=O)[C@H](CC(=O)O)NC(=O)[C@H](CO)NC(=O)[C@H](Cc1ccccc1)NC(=O)[C@@H](NC(=O)[C@H](CCC(=O)O)NC(=O)[C@H](CCC(N)=O)NC(=O)[C@H](CO)NC(=O)[C@H](CC(C)C)NC(=O)[C@@H]1CCCN1C(=O)[C@@H]1CCCN1C(=O)[C@@H](N)CCC(=O)O)[C@@H](C)O)C(=O)O [Peptide 39.0409]

>  <result_comparator>
<

>  <pIC50>
3.92

$$$$
>  <compound>
CC[C@H](C)[C@H](NC(=O)[C@@H](NC(=O)[C@@H](N)CC(C)C)[C@@H](C)O)C(=O)N[C@H](C(=O)N[C@H](C(=O)N[C@@H](CC(C)C)C(=O)N[C@@H](CCC(=O)O)C(=O)N[C@@H](CC(=O)O)C(=O)N[C@@H](CO)C(=O)N[C@@H](CO)C(=O)NCC(=O)N[C@@H](CC(N)=O)C(=O)N[C@@H](CC(C)C)C(=O)N[C@@H](CC(C)C)C(=O)NCC(=O)O)[C@@H](C)O)[C@@H](C)CC [Peptide 39.0421]

>  <result_comparator>
=

>  <pIC50>
4.00

$$$$
>  <compound>
CC(C)C[C@H](NC(=O)[C@H](CCC(N)=O)NC(=O)[C@@H](NC(=O)[C@@H]1CCCN1)C(C)C)C(=O)N[C@@H](Cc1c[nH]c2ccccc12)C(=O)N[C@H](C(=O)N[C@@H](CC(=O)O)C(=O)N[C@@H](CO)C(=O)N[C@H](C(=O)N1CCC[C@H]1C(=O)N1CCC[C@H]1C(=O)N1CCC[C@H]1C(=O)NCC(=O)N[C@H](C(=O)N[C@@H](CCCNC(=N)N)C(=O)O)[C@@H](C)O)[C@@H](C)O)C(C)C [Peptide 39.0413]

>  <result_comparator>
=

>  <pIC50>
5.00

$$$$
>  <compound>
CC(C)C[C@H](NC(=O)[C@H](CC(N)=O)NC(=O)CNC(=O)[C@@H](N)CCC(=O)O)C(=O)N[C@@H](CCCNC(=N)N)C(=O)N[C@H](C(=O)N[C@@H](CCC(=O)O)C(=O)N[C@@H](Cc1ccc(O)cc1)C(=O)N[C@@H](CC(C)C)C(=O)N[C@@H](CC(=O)O)C(=O)N[C@@H](CC(=O)O)C(=O)N[C@@H](CCCNC(=N)N)C(=O)N[C@@H](CC(N)=O)C(=O)N[C@H](C(=O)N[C@@H](Cc1ccccc1)C(=O)O)[C@@H](C)O)C(C)C [Peptide 39.0417]

>  <result_comparator>
=

>  <pIC50>
4.11

$$$$
>  <compound>
CC[C@H](C)[C@H](NC(=O)[C@H](C)NC(=O)[C@@H](N)CC(C)C)C(=O)N[C@H](C(=O)N[C@@H](C)C(=O)N[C@@H](CCCNC(=N)N)C(=O)N[C@@H](CCC(=O)O)C(=O)NCC(=O)N[C@@H](CC(=O)O)C(=O)N[C@@H](CS)C(=O)N[C@@H](C)C(=O)N1CCC[C@H]1C(=O)N[C@@H](CCC(=O)O)C(=O)N[C@@H](CCC(=O)O)C(=O)N[C@@H](CCCCN)C(=O)O)[C@@H](C)CC [Peptide 39.0405]

>  <result_comparator>
<

>  <pIC50>
3.92

$$$$
>  <compound>
CC[C@H](C)[C@H](NC(=O)[C@H](C)NC(=O)[C@@H](N)CCSC)C(=O)N[C@@H](Cc1ccc(O)cc1)C(=O)N[C@@H](CCCCN)C(=O)N[C@@H](CCC(N)=O)C(=O)N[C@@H](CO)C(=O)N[C@@H](CCC(N)=O)C(=O)N[C@@H](Cc1c[nH]cn1)C(=O)N[C@@H](CCSC)C(=O)N[C@H](C(=O)N[C@@H](CCC(=O)O)C(=O)N[C@H](C(=O)N[C@H](C(=O)N[C@@H](CCCNC(=N)N)C(=O)O)C(C)C)C(C)C)[C@@H](C)O [Peptide 39.0414]

>  <result_comparator>
<

>  <pIC50>
3.92

$$$$

----------
target_desc: DRB1*0401 (DR4w4) (Homo sapiens, UniProt P01903+P01911, A100K/A169T/F76Y/I96L/K127E/L162R/M171V/N62H/P40V/Q125Y/R42H/S133A/S149N/S66Y/V115G/V209L/W38E)
Construct: used as sources of human HLA class II molecules; endogenous in cells; host or cells: PREISS (EBV-transformed homozygous B cell line)
protocol_text: Class II peptide-binding assay, DR4w4;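 also: unlabeled test peptides compete with a radiolabeled probe peptide for binding to affinity-purified HLA-DR, with DR amount titrated to capture a small fraction of label, IC50 approximating Kd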
test_conditions: read-out: DR4w4 nM; Table VIII, In IC50 Format
Square brackets hold non-standard residues; d marks the D form. Peptide text beside a SMILES is read from it.
For each record, check the reported IC50: if it is below 4 nM write Condition met, else write Condition not met.

>  <compound>
CC(C)C[C@H](NC(=O)[C@@H](NC(=O)[C@@H](NC(=O)[C@H](CCC(N)=O)NC(=O)[C@H](CO)NC(=O)[C@H](CCC(N)=O)NC(=O)[C@H](Cc1ccccc1)NC(=O)[C@H](CCCNC(=N)N)NC(=O)[C@H](C)NC(=O)[C@H](N)Cc1ccc(O)cc1)[C@@H](C)O)[C@@H](C)O)C(=O)N[C@@H](CCCCN)C(=O)N[C@@H](C)C(=O)N[C@@H](CCCCN)C(=O)N[C@@H](C(N)=O)[C@H](C)O [Peptide 858.06] (H-[dY]ARFQSQTTLKAK[dT]-NH2)

>  <category>
Condition not met

$$$$
>  <compound>
CC(C)C[C@H](NC(=O)[C@@H](NC(=O)[C@H](C)NC(=O)[C@H](C)NC(=O)[C@H](CCCCN)NC(=O)[C@H](C)NC(=O)[C@H](Cc1ccccc1)NC(=O)[C@H](CCCCN)NC(=O)[C@@H](C)N)[C@@H](C)O)C(=O)N[C@@H](CCCCN)C(=O)N[C@@H](C)C(=O)N[C@@H](C)C(=O)N[C@H](C)C(N)=O [Peptide 871.01] (H-[dA]KFAKAATLKAA[dA]-NH2)

>  <category>
Condition met

$$$$
>  <compound>
C[C@H](NC(=O)[C@H](N)Cc1ccc(O)cc1)C(=O)N[C@@H](C)C(=O)N[C@@H](Cc1ccccc1)C(=O)N[C@@H](C)C(=O)N[C@@H](C)C(=O)N[C@@H](C)C(=O)N[C@@H](C)C(=O)N1CCC[C@H]1C(=O)N[C@@H](CCCCN)C(=O)N[C@@H](C)C(=O)N[C@@H](C)C(=O)N[C@@H](C)C(=O)N[C@H](C)C(N)=O [Peptide 828.06] (H-[dY]AAFAAAAPKAAA[dA]-NH2)

>  <category>
Condition not met

$$$$
>  <compound>
C[C@H](NC(=O)[C@H](C)NC(=O)[C@H](Cc1ccccc1)NC(=O)[C@H](C)NC(=O)[C@@H](C)N)C(=O)N[C@@H](C)C(=O)N[C@@H](C)C(=O)N1CCC[C@H]1C(=O)N[C@@H](CCCCN)C(=O)N[C@@H](C)C(=O)N[C@@H](C)C(=O)N[C@@H](C)C(=O)N[C@H](C)C(N)=O [Peptide 828.05] (H-[dA]AFAAAAPKAAA[dA]-NH2)

>  <category>
Condition not met

$$$$
>  <compound>
CC(C)C[C@H](NC(=O)[C@@H](NC(=O)[C@@H](NC(=O)[C@H](CCC(N)=O)NC(=O)[C@H](CO)NC(=O)[C@H](CCC(N)=O)NC(=O)[C@H](Cc1ccccc1)NC(=O)[C@H](C)NC(=O)[C@H](C)NC(=O)[C@H](N)Cc1ccc(O)cc1)[C@@H](C)O)[C@@H](C)O)C(=O)N[C@@H](CCCCN)C(=O)N[C@@H](C)C(=O)N[C@@H](CCCCN)C(=O)N[C@@H](C(N)=O)[C@H](C)O [Peptide 858.04] (H-[dY]AAFQSQTTLKAK[dT]-NH2)

>  <category>
Condition not met

$$$$
